Assay: Bioanalysis of compound levels in plasma and brain after long-term treatment
Format: in vivo
Settings: mouse, plasma, ip; Line 61 transgenic mice, 1 mg/kg i.p. daily about 90 days, 1 h post final dose, mean ± S.E.M.; read-out: [minzasolmin] Plasma
Reported property: concentration at 1 h (ng/mL)
One number for each entry, in ng/mL.

# input Item CCCC[C@H](Cc1c[nH]c2ccccc12)NC(=O)c1cnc(N2CCN(C)CC2)s1 [minzasolmin] has what recorded concentration at 1 h?
# output 72.3

* * *

Assay: Mouse pharmacokinetics after single intraperitoneal dose (plasma and brain)
Format: in vivo
Settings: male, C57BL/6, mouse, plasma, ip, 1 mg/kg, plasma, 1 mg/kg single i.p., C57/Bl6 mice; read-out: T max
Reported property: Tmax (min)
One number for each entry, in min.

# input molecule: CCCC[C@H](Cc1c[nH]c2ccccc12)NC(=O)c1cnc(N2CCN(C)CC2)s1 ; wanted: its Tmax
# output 30
